Ref: PubChem BioAssay

- experiment: reversal of MRP1-mediated doxorubicin resistance, pilot screen, H69AR cells, doxorubicin co-treatment (AID 601)
- test-conditions: H69AR cells, CellTiter-Glo, 72 h; compound alone cytotoxicity; at 10 µM
The entries below are paired with their reported viability.
Express it in %; write the number only.

compound	unit-abbrev	viability
CC(=O)Nc1c(C(=O)O)[nH]c2ccccc12	%	104
CN/C=C1\C(=O)C(C)(C)Oc2ccc3ccc(=O)oc3c21	%	87.9
COc1cc(C2C3=C(CC(C)(C)CC3=O)Nc3c2c(=O)[nH]c(=O)n3Cc2ccccc2)ccc1O (configuration not stated)	%	93.7

Entry under test: O=C(NCC1COc2ccccc2O1)c1ccc(NC(=O)c2ccco2)cc1 (configuration not stated) . Its viability was 99.1

Entry under test: CC(C)OP(=O)(c1ccc(N(C)C)cc1)C(O)c1ccccc1F (configuration not stated) . Its viability was 106

Entry under test: CSC1=C(C#N)C(c2ccc(C)cc2)C2=C(CCCC2=O)N1 (configuration not stated) . Its viability was 77.6

Entry under test: O=C(CSc1nnc(-c2ccco2)n1CC1CCCO1)N1CCCCC1 (configuration not stated) . Its viability was 97.6

Entry under test: O=C(Nc1ccc2c(c1)nc1n2CCN(Cc2ccccc2)C1)c1cccs1 . Its viability was 80.2

Entry under test: CC1CCCN(S(=O)(=O)c2ccc(C(=O)Nc3nnc(-c4ccccc4Cl)o3)cc2)C1 (configuration not stated) . Its viability was 18.9

Entry under test: C=C(C)Cn1c(CCNC(=O)CC)nc2ccccc21 . Its viability was 104

Entry under test: COc1cc(S(=O)(=O)N(C)C)ccc1F . Its viability was 91.7

Entry under test: COc1ccccc1N(CC(=O)NC1CCCC1)C(=O)CCC(=O)Nc1cc(C)on1 . Its viability was 85.3
